system: Escherichia coli TOP10; experiment: shrunken log2 fold change of peptide-encoding DNA abundance (4.5 h post-induction vs induction); higher = less antimicrobial activity (less host growth inhibition); details: time post-induction: 4.5 h; library: site-saturation at positions 5, 18, 19, 20;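 note: peptides expressed intracellularly from a pBAD plasmid library in pooled LB shake-flask culture, induced with 0.3% L-arabinose, DNA abundance read by NGS, three biological replicates, DESeq2 with apeglm shrinkage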
Assign a class from recorded shrunken log2 fold change; defined classes: bucket A: < -0.09; bucket B: ≥ -0.09 and < 0.02; bucket C: ≥ 0.02

> print(dat)
            input.sequence  category.label
1  RRIRSRPPRLPRPRPRPSNLPRP        bucket A
2  RRIRQRPPRLPRPRPRPQHRPRP        bucket B

Please examine the following record next.
Prompt line: Into which bin does this sequence go? RRIRYRPPRLPRPRPRPRYCPRP
Response line: bucket A
